measuredProperty: pIC50
Scale explanation: pIC50 corresponds to minus log10 of a concentration expressed in moles per litre.

**Q:** What value of pIC50 on uACC (Ustilago maydis ACC) (Ustilago maydis) does COc1ccc(-c2cc(C(=O)N3CCC4(CC3)NC(=O)c3ccccc3O4)n[nH]2)cc1 have?
**A:** 3.66

**Q:** What value of pIC50 on uACC (Ustilago maydis ACC) (Ustilago maydis) does CCOc1ccc2c(c1)C(=O)NC1(CCN(C(=O)c3cc(OC)c4cccc(OC)c4n3)CC1)O2 have?
**A:** 4.70

**Q:** What value of pIC50 on uACC (Ustilago maydis ACC) (Ustilago maydis) does Cc1c(C(=O)N2CCC3(CC2)NC(=O)c2ccccc2O3)[nH]c2ccc(F)cc12 have?
**A:** 4.40
